study target: endogenous glucocorticoid receptors in SW1353/MMTV-5 cells (Homo sapiens)
Construct: contains endogenous glucocorticoid receptors; endogenous in cells
Sequence (P04150 whole entry): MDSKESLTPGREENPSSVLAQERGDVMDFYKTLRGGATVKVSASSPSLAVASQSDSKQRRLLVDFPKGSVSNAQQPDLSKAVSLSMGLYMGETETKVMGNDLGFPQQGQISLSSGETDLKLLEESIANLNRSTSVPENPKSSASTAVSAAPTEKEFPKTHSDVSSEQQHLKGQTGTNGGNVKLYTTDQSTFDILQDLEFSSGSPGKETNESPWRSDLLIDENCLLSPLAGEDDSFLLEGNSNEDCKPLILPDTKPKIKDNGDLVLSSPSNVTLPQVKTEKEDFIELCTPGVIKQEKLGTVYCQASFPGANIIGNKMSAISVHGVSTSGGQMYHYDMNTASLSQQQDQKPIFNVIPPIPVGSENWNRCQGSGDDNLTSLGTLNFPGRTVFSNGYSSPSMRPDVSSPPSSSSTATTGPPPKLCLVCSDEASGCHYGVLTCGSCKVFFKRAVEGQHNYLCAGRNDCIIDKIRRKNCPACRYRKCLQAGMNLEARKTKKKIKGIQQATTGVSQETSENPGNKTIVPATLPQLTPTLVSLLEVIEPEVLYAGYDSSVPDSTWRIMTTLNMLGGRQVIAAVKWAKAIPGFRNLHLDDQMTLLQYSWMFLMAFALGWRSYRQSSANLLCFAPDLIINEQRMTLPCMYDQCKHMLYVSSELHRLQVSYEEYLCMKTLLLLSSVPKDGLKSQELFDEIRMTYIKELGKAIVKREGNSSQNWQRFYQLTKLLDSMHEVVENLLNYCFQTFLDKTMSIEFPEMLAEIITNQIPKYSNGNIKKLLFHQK
assay text: GR functional assay using SW1353/MMTV-5 cells (luciferase reporter)
assay endpoint: Ki

>>> value("O=c1[nH]c(N2CCC(c3ccccc3)CC2)c(Cc2ccc(Cl)cc2)c(=O)[nH]1")
"> 100 nM"
>>> value("O=c1[nH]c(N2CCC(c3ccccc3)CC2)c(Cc2cccc(Cl)c2)c(=O)[nH]1")
"10 to 100 nM"
>>> value("O=c1[nH]c(N2CCC(c3ccccc3)CC2)c(Cc2cccc(Br)c2)c(=O)[nH]1")
"10 to 100 nM"
>>> value("Cn1c(=O)[nH]c(N2CCC(c3ccccc3)CC2)c(Cc2ccccc2Cl)c1=O")
"> 100 nM"
>>> value("O=c1[nH]c(N2CCC(c3ccccc3)CC2)c(Cc2ccccc2)c(=O)[nH]1")
"10 to 100 nM"
>>> value("O=c1[nH]c(N2CCC(c3ccccc3)CC2)c(Cc2ccccc2Cl)c(=O)[nH]1")
"10 to 100 nM"
